The measured values listed here are drawn from PubChem BioAssay (NCI).

Tested on: MDA-MB-231 breast
method_description: NCI tumour cell line growth inhibition, 48 h
*1 amine or outer side, *2 acyl side, *3 side chain or, on linkers, in order; H or OH if unused. Where a SMILES comes first, the peptide text is derived from it. [ ]: non-standard residue; d: D form. The star is where a group is joined. X31 = CC(=O)N(C)SCC(N[*:1])C(=O)[*:2]; Cbz = O=C(OCc1ccccc1)*; Bn = c1ccc(C*)cc1
Give TGI for every item shown.

Reported TGI for MDA-MB-231 breast, given CC(OC(=O)C(CC(=O)OC(C)(C)C)NC(=O)OC(C)(C)C)C(=O)OCc1ccccc1 (stereo unspecified) ?
> 100 µM

MDA-MB-231 breast / TGI / Cc1ccc(NC(=O)c2sc3nc4c(cc3c2N)C(=O)CCC4)cc1C : value?
> 100 µM

Provide the documented TGI with MDA-MB-231 breast as the system for CC(=O)N(C)SCC(NC(=O)C(Cc1ccccc1)NC(=O)OCc1ccccc1)C(=O)NC(Cc1ccccc1)C(=O)NC(Cc1c[nH]c2ccccc12)C(=O)NC(CCCCNC(=O)OCc1ccccc1)C(=O)NC(C(=O)NC(CSN(C)C(C)=O)C(=O)NC(C(N)=O)C(C)OCc1ccccc1)C(C)OCc1ccccc1 (stereo unspecified) (Cbz-F[X31]FWK(Cbz)T(Bn)[X31]T(Bn)-NH2; configuration not given here)
> 100 µM

Recorded TGI for NCOC(=O)Cc1ccc(Br)cc1 with MDA-MB-231 breast, please?
> 100 µM

# get_value(readout= TGI, system= MDA-MB-231 breast) for Fc1ccc(-c2sc(-c3cccs3)cc2Cc2cccs2)cc1
> 100 µM

Notebook entry, MDA-MB-231 breast assay: TGI of CC(=O)OC12COC1CC(O)C1(C)C(=O)C(O)C3=C(C)C(O)CC(O)(C(OC(=O)c4ccccc4)C21)C3(C)C (stereo unspecified) = ?
> 100 µM

###

Tested on: CAKI-1 renal
method_description: NCI tumour cell line growth inhibition, 48 h; in the data active = GI50 below about 0.43 µM; inactive = the rest
Thanks in advance; please answer with one of these: Yes for active, No for inactive

How did this test come out for CCCCCCCCCCCCOC1C(CNC(=O)C2OC3OC(C)(C)OC3C2NC(=O)Nc2ccc(CC(=O)NC(Cc3ccccc3)C(=O)O)cc2)OC2OC(C)(C)OC21 (stereo not drawn) ?
No

Please indicate how the test categorized CCCCCCCCC(=O)OCC(CS[As](C)C)OC(=O)CCCCCCCC (stereo not drawn) .
Yes

Dear colleague, could you share the recorded outcome for NCC1OC(OC2C(CO)OC(OC3C(O)C(N)CC(N)C3OC3OC(CO)C(O)CC3N)C2O)C(N)C(O)C1OC1OC(CO)C(O)C(O)C1O (stereo not drawn) when you have a moment?
No

Call for entry COC1=CC(c2ccc[nH]2)=N/C1=C\c1[nH]c(C)c(C(=O)CCCCC(=O)Oc2ccc3c(c2)CCC2C3CC[C@]3(C)[C@@H](O)CC[C@@H]23)c1C (stereo partly drawn) :
No

Which outcome was assigned to NC(N)=N/N=C/c1ccc(-c2ccc(-c3cc(Cl)cc(Cl)c3)s2)cc1 in this test?
No

# lookup: test call for N#C[Se]CCCNS(=O)(=O)C1CC2C=CC1C2 (stereo not drawn)
Yes

Query: recorded result category for COc1ccc(/C=C/C(=O)c2ccc(OC)c(OC)c2)cc1O in this test
No

Just curious, what result did O=S(=O)(/N=c1/scc(-c2ccccc2)n1-c1ccccc1)c1ccc(N2N=C3c4ccccc4CC3C2c2cccs2)cc1 (stereo not drawn) get here?
No

###

System: SF-295 CNS
method_description: NCI tumour cell line growth inhibition, 48 h
Kindly state TGI for each of the entries shown.

What value of TGI has been recorded for this entry: Cn1c(NCC(O)CN2CCCC2)cc(=O)n(C)c1=O (centres undefined)
> 100 µM

What does the record list as TGI for CCOC(=O)c1c2c(c(O)c3ccccc3c(O)n(Cc3ccccc3)c1C)C(=O)C=CC2=O ?
> 100 µM

If you can, please state the reported TGI value of O=C1CCSC2=C1SCc1sccc12 .
> 100 µM

Name the reported TGI value associated with the molecule COC1(O)c2cccc(Cl)c2C(=O)N1C1(C(N)=O)CCCCC1 (centres undefined)
> 100 µM

Fill in the blank: the reported TGI of OCCOc1ccccc2cccc1-2 is ____.
> 100 µM

Item CC(OC(=O)C(CC(=O)OC(C)(C)C)NC(=O)OC(C)(C)C)C(=O)OCc1ccccc1 (centres undefined) has what recorded TGI?
> 100 µM

Consider the molecule shown here: CS(=O)(=O)CC(=O)c1ccccc1 What is its recorded TGI?
> 100 µM

Value lookup for TGI; key = c1ccc2cc(C[n+]3ccn(CCCCCCCCCCn4cc[n+](Cc5ccc6ccccc6c5)c4)c3)ccc2c1
5.44 µM

Quick one: TGI for COc1cc2c(cc1OCCCCOc1cc3c(cc1OC)C(=O)N1CCC[C@H]1C(=O)N3)N=C[C@@H]1CCCN1C2=O ?
26 µM

Would you kindly share the measured TGI for O=C1c2cccc(NCCN=Cc3ccccc3O)c2C(=O)c2c(NCCN=Cc3ccccc3O)cccc21 ?
1.88 µM

Reported TGI for COC1=CC(c2ccc[nH]2)=N/C1=C\c1[nH]c(C)c(C(=O)CCCCC(=O)Oc2ccc3c(c2)CCC2C3CC[C@]3(C)[C@@H](O)CC[C@@H]23)c1C (some centres undefined) : what is it?
> 100 µM

Find the recorded TGI belonging to O=C(O)c1ccc(C2SCc3nc4ccccc4n32)cc1 (centres undefined) and report it.
> 100 µM

Field request: TGI | item: COc1cc2c(cc1OC)C(=O)/C(=C/c1cc(OC)c(OC)c(OC)c1)C2
> 100 µM

Any idea what its TGI is? The molecule is CCCCCCCCn1ccc2cc(NC(=O)Cn3cc(CN4CCCCC4)nn3)ccc21
3.65 µM

###

System: BT-549 breast
method_description: NCI tumour cell line growth inhibition, 48 h
Field: GI50. Provide a value for each of the compounds that follow.

GI50 lookup needed for Clc1cc(Cl)cc(N2N=C(c3cccc(Nc4ccncc4)c3)CC2c2ccc3c(c2)OCO3)c1 (configuration not stated) , thanks.
1.7 µM

Fill blank: measured GI50 of the compound Cc1ccc(Cl)c(Nc2ccccc2C(=O)O)c1Cl is ____.
21.7 µM

Form field: reported GI50 of Clc1ccc(OCc2nnc3n2N=C(c2ccc(Cl)cc2Cl)CS3)cc1
22.8 µM

I'd like to know its GI50. The compound in question is COc1ccc(/C=C2\C=C(c3ccccc3)N(CCc3ccccc3)C2=O)cc1OC
12.4 µM

Given O=C(Nc1ccc(/C=C/c2ccc(NC(=O)c3cc(S(=O)(=O)O)c4cccnc4c3O)cc2S(=O)(=O)O)c(S(=O)(=O)O)c1)c1cc(S(=O)(=O)O)c2cccnc2c1O , state its recorded GI50.
21.8 µM

Field request: GI50 | item: CC(=O)OC1CC2C3CCC4C[C@@H](NC(=O)C=C(C)C)CC[C@]4(C)C3CC[C@]2(C)[C@H]1C(C)N(C)C (some centres not stated)
4.21 µM

Look up GI50 for this compound: O=C(Nc1n[nH]c2nnc(-c3cccnc3)cc12)C1CC1
10.8 µM

###

Tested on: PC-3 prostate
method_description: NCI tumour cell line growth inhibition, 48 h
reported_property: TGI

Would you kindly share the measured TGI for COc1ccc(C2C(C)C(=O)C(C)C(c3ccc(OC)cc3)N2N=O)cc1 (configuration not stated) ?
> 1000 µM

Requested field: TGI. Item: O=C(CCCl)NNC1=NCCCN1
> 100 µM

Request the reported TGI associated with CCOc1cccc(-c2nc(N)nc(Nc3ccccc3SSc3ccccc3Nc3nc(N)nc(-c4cccc(OCC)c4)n3)n2)c1
15.3 µM

Requested field: TGI. Item: O=C1c2ccccc2-c2c1c1ccccc1c(=O)n2CCCNCCCCNCCCN1C(=O)c2ccccc2C2C(=O)c3ccccc3C21 (configuration not stated)
1.24 µM

Which TGI is listed for CCOC(=O)C(NC(=O)c1ccccc1)(Nc1ccc(Cl)cc1C(F)(F)F)C(F)(F)F (configuration not stated) ?
29.2 µM

What does the data say about its TGI? Entry: COc1cc(-c2[o+]c3cc(O)cc(O)c3cc2O)cc(O)c1O
> 100 µM

Data request, read-out TGI, for COc1ccc(/C=C2\C=C(c3ccccc3)N(CCc3ccccc3)C2=O)cc1OC
> 100 µM

What does the data say about its TGI? Entry: CCOc1cc2oc(C)cc(=O)c2c(OC)c1C=Nc1ccc(Cn2c(C)nc3ccccc32)cc1
> 100 µM

May I ask what TGI has been recorded for COc1ccc(C2CC3(c4ccccc4)ON=C(c4ccccc4)N3c3ccccc3S2)cc1 (configuration not stated) ?
> 100 µM

Query (molecule): CC1(C)[C@@H](OC(=O)CCC(=O)O)CC[C@]2(C)[C@H]3C(=O)C=C4[C@@H]5C[C@@](C)(C(=O)O)CC[C@]5(C)CC[C@@]4(C)[C@]3(C)CC[C@@H]12 ; field requested: TGI
127 µM

Param item = CC1=CC(=O)CC(C)(C)C1/C=C/C(C)=C/C=C/C(C)=C/C=C/C=C(C)/C=C/C=C(C)/C=C/C1=C(C)CC(O)CC1(C)C (configuration not stated) ; retrieve measured TGI.
> 100 µM

// query TGI value for entry Clc1ccc(OCc2nnc3n2N=C(c2ccc(Cl)cc2Cl)CS3)cc1
> 100 µM

Reported TGI, molecule COc1ccc2nc3ccc(OC)cc3c(SCc3ccccc3)c2c1 : ____
> 100 µM

Quick one: TGI of CS(=O)(=O)CC(=O)c1ccccc1 ?
> 100 µM

What value of TGI has been reported for the following molecule? O=C(O)c1ccc(C2SCc3nc4ccccc4n32)cc1 (configuration not stated)
> 100 µM

State the recorded TGI for this entry: CN1C/C=C/CCOc2cccc(c2)-c2ccnc(n2)Nc2cccc(c2)C1
1.39 µM

// returns reported TGI for input COC(=O)/C=C/C1(O)C=CC(=O)C=C1
9.53 µM
